Let's look at some binders and their measured IC50.
Target: T1, human C5 protein (human, UniProt P01031 19-673; P01031 678-1676)
T1 construct: Natural C5 is made from one precursor and circulates as two disulfide-linked chains; also called complement component C5; purified human C5
Assay: competitive fluorescence polarization vs probe R3076, Exp 2
Starred links: 1 amine or outer side, 2 acyl side, 3 side chain; linkers in the order of their positions; H or OH if unused. Positions of bridges follow the written chain, without caps; N, C: chain ends. Non-standard residues stand in square brackets, D forms with d. Trp(7-aza) = N[C@@H](Cc1c[nH]c2ncccc12)C(=O)O; pXylylene = c1cc(C[*:2])ccc1C[*:1]; Phg = N[C@H](C(=O)O)c1ccccc1; Tle = CC(C)(C)[C@H](N)C(=O)O; NMeS = CN[C@@H](CO)C(=O)O; Nva = CCC[C@H](N)C(=O)O
Your answer should be a plain number; it is taken to be in nM.

Lookup: Return reported IC50. Input binder: Ac-[Nva]CYEN[Tle]Y[Trp(7-aza)]EYP[Phg]P-NH2 (SMILES CCC[C@H](NC(C)=O)C(=O)N[C@@H](CS)C(=O)N[C@@H](Cc1ccc(O)cc1)C(=O)N[C@@H](CCC(=O)O)C(=O)N[C@@H](CC(N)=O)C(=O)N[C@H](C(=O)N[C@@H](Cc1ccc(O)cc1)C(=O)N[C@@H](Cc1c[nH]c2ncccc12)C(=O)N[C@@H](CCC(=O)O)C(=O)N[C@@H](Cc1ccc(O)cc1)C(=O)N1CCC[C@H]1C(=O)N[C@H](C(=O)N1CCC[C@H]1C(N)=O)c1ccccc1)C(C)(C)C) [R3003]
Found: 64.1

Lookup: Give recorded IC50. Ac-[Nva]C[Phg]T[Trp(7-aza)]EY[NMeS]HC[Nva]-NH2 (linker 2-10 via pXylylene) [R3050]
Found: 293
